Recorded values, source the supplement of paper PMC10567573.

B1: TAF7L (parent)
chain: PDVENEVKRLLRSDAEAVSTRWEV

# Variants of: B1
# ASSAY_NOTES: protein stability index of a GFP-peptide fusion (GPS, HEK-293T) (PSI 1-6); higher = more stable;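 also: lentivirally expressed fusions sorted by FACS into six bins by GFP to DsRed ratio, PSI derived from sequencing read proportions per bin multiplied by bin number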
# CONDITIONS: c terminus: a fixed tail appended
protein stability index values, listed per item
Respond using a number only.

Please review the entries below; each comes with its answer.
SEQUENCE_INPUT: PDVENEVKRLLRKDAEAVSTRWEV [S13K]
EXPERIMENTAL_VALUE: 3.76
//
SEQUENCE_INPUT: PDVENEVKRLLRSDAEAVSTRLEV [W22L]
EXPERIMENTAL_VALUE: 4.8
//
SEQUENCE_INPUT: PDVENEVKRLLRSDAEAVSTRNEV [W22N]
EXPERIMENTAL_VALUE: 5.45
//
SEQUENCE_INPUT: PDVENEVKHLLRSDAEAVSTRWEV [R9H]
EXPERIMENTAL_VALUE: 4.05
//
SEQUENCE_INPUT: PDVENEVKRLLVSDAEAVSTRWEV [R12V]
EXPERIMENTAL_VALUE: 2.96
//
SEQUENCE_INPUT: PDFENEVKRLLRSDAEAVSTRWEV [V3F]
EXPERIMENTAL_VALUE: 3.32
//
SEQUENCE_INPUT: PDVENEVKRLLRSMAEAVSTRWEV [D14M]
EXPERIMENTAL_VALUE: 3.06
//
SEQUENCE_INPUT: PDVENEVKRLLWSDAEAVSTRWEV [R12W]
EXPERIMENTAL_VALUE: 2.33

Short answer for PDVENEVKRLLRSDAEAVSRRWEV [T20R] : protein stability index was 3.29

Short answer for PDVENEVKRLLRSDAEAVSTRCEV [W22C] : protein stability index was 3.63

Short answer for PDVENEVKRLLRSRAEAVSTRWEV [D14R] : protein stability index was 2.38

Short answer for PDVENEVKRLCRSDAEAVSTRWEV [L11C] : protein stability index was 3.25
